Entry source: patent US20240409585A1

target: PE-labeled human PD-L1-Ig binding to Jurkat cell line over-expressing human PD-1 (Jurkat-PD-1) (Homo sapiens); construct: expressed in transfected cells; host or cells: Jurkat; test: Jurkat-PD-1 Cell Binding High-Content Screening Assay (CBA): Method 1; conditions: Jurkat-hPD-1 cells, PE-labeled PD-L1-Ig 20 nM final; read-out: Jurkat HPDL1 PD1 IC50 (uM) (Method 1)
Bridge positions count the residues as written; N and C are the ends. Square brackets hold non-standard residues; d marks the D form. Peptide text beside a SMILES is read from it. Bip = N[C@@H](Cc1ccc(-c2ccccc2)cc1)C(=O)O; Pip = O=C(O)[C@@H]1CCCCN1; Dab = NCC[C@H](N)C(=O)O
READOUT_TYPE: IC50 (µM)
Form entry: value (µM) — number only.

IC50 lookup needed for CC(C)C[C@@H]1NC(=O)[C@H](CCN)NC(=O)[C@@H](CC(C)C)NC(=O)[C@@H]2CCCCN2C(=O)[C@H](Cc2cnc[nH]2)NC(=O)[C@H](Cc2ccc(-c3ccccc3)cc2)NC(=O)[C@H](C(C)C)NC(=O)[C@H](Cc2c[nH]c3ccccc23)NC(=O)[C@H](CC(=O)O)NC(=O)[C@H](Cc2ccc(O)cc2)NC(=O)[C@H](CC(N)=O)NC(=O)CSC[C@@H](C(=O)N[C@@H](C)C(N)=O)NC(=O)[C@H]([C@@H](C)O)NC(=O)[C@H](C(C)C)NC1=O [Compound 1381] ({CH2CO}-NYDWV[Bip]H[Pip][dL][Dab]LVTCA-NH2; thioether N-14) , thanks.
0.03

###

Record form. Attribute: IC50. Fill in for each entry.
biological target: PE-labeled human PD-L1-Ig binding to Jurkat cell line over-expressing human PD-1 (Jurkat-PD-1) (Homo sapiens, UniProt Q15116); construct: expressed in transfected cells; host or cells: Jurkat; test: Jurkat-PD-1 Cell Binding High-Content Screening Assay (CBA): Method 1; conditions: Jurkat-hPD-1 cells, PE-labeled PD-L1-Ig 20 nM final; read-out: Jurkat HPDL1 PD1 IC50 (uM) (Method 1)
Sequence (Q15116 25-288): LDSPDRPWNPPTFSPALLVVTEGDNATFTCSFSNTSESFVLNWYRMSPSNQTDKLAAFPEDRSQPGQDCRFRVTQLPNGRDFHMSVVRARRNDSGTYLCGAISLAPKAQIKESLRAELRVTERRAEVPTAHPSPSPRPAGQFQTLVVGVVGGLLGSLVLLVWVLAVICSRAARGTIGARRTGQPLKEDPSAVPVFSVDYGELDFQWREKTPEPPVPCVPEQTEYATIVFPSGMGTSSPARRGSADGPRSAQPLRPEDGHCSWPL
Bridge positions count the residues as written; N and C are the ends. Square brackets hold non-standard residues; d marks the D form. Peptide text beside a SMILES is read from it. Bip = N[C@@H](Cc1ccc(-c2ccccc2)cc1)C(=O)O; Cit = NC(=O)NCCC[C@H](N)C(=O)O; NMeA = CN[C@@H](C)C(=O)O; Nle = CCCC[C@H](N)C(=O)O; Orn = NCCC[C@H](N)C(=O)O; Dab = NCC[C@H](N)C(=O)O
Form entry: value (µM) — number only.

IC50 lookup needed for CC(C)C[C@@H]1NC(=O)[C@H](Cc2c[nH]c3ccccc23)NC(=O)[C@H](CC(=O)O)NC(=O)[C@H](Cc2ccc(O)cc2)NC(=O)[C@H](Cc2ccccc2)NC(=O)CSC[C@@H](C(=O)N[C@@H](C)C(N)=O)NC(=O)[C@H](CO)NC(=O)[C@H](C(C)C)NC(=O)[C@H](CC(C)C)NC(=O)[C@H](CC(N)=O)NC(=O)[C@@H](CC(C)C)NC(=O)[C@H](C)N(C)C(=O)[C@H](CCCNC(=N)N)NC(=O)[C@H](Cc2ccc(-c3ccccc3)cc2)NC1=O [Compound 1775] ({CH2CO}-FYDWL[Bip]R[NMeA][dL]NLVSCA-NH2; thioether N-14) , thanks.
0.05

Okay, and CC(C)C[C@@H]1NC(=O)[C@H](CCN)NC(=O)[C@@H](CC(C)C)NC(=O)[C@H](C)N(C)C(=O)[C@H](CCCNC(=N)N)NC(=O)[C@H](Cc2ccc(-c3ccccc3)cc2)NC(=O)[C@H](C(C)C)NC(=O)[C@H](Cc2c[nH]c3ccccc23)NC(=O)[C@H](CC(=O)O)NC(=O)[C@H](Cc2ccc(O)cc2)NC(=O)[C@H](CC(N)=O)NC(=O)CSC[C@@H](C(=O)N[C@@H](C)C(N)=O)NC(=O)[C@H](CCCN)NC(=O)[C@H](C(C)C)NC1=O [Compound 1242] ({CH2CO}-NYDWV[Bip]R[NMeA][dL][Dab]LV[Orn]CA-NH2; thioether N-14) ?
0.09

Okay, and CCCC[C@@H]1NC(=O)[C@H](CCCNC(=N)N)NC(=O)[C@@H](CC(C)C)NC(=O)[C@H](C)N(C)C(=O)[C@H](CCCN)NC(=O)[C@H](Cc2ccc(-c3ccccc3)cc2)NC(=O)[C@H](C(C)C)NC(=O)[C@H](Cc2c[nH]c3ccccc23)NC(=O)[C@H](CC(=O)O)NC(=O)[C@H](Cc2ccc(O)cc2)NC(=O)[C@H](CC(N)=O)NC(=O)CSC[C@@H](C(=O)N[C@@H](C)C(N)=O)NC(=O)[C@H]([C@@H](C)O)NC(=O)[C@H](C(C)C)NC1=O [Compound 1289] ({CH2CO}-NYDWV[Bip][Orn][NMeA][dL]R[Nle]VTCA-NH2; thioether N-14) ?
0.09

Okay, and CC(C)C[C@@H]1NC(=O)[C@H](CCN)NC(=O)[C@@H](CC(C)C)NC(=O)[C@H](C)N(C)C(=O)[C@H](CCCNC(N)=O)NC(=O)[C@H](Cc2ccc(-c3ccccc3)cc2)NC(=O)[C@H](C(C)C)NC(=O)[C@H](Cc2c[nH]c3ccccc23)NC(=O)[C@H](CC(=O)O)NC(=O)[C@H](Cc2ccc(O)cc2)NC(=O)[C@H](CC(N)=O)NC(=O)CSC[C@@H](C(=O)N[C@@H](C)C(N)=O)NC(=O)[C@H](CCCN)NC(=O)[C@H](C(C)C)NC1=O [Compound 1232] ({CH2CO}-NYDWV[Bip][Cit][NMeA][dL][Dab]LV[Orn]CA-NH2; thioether N-14) ?
0.12

Okay, and CC(C)C[C@@H]1NC(=O)CSC[C@@H](C(=O)NCC(N)=O)NC(=O)[C@H](CO)NC(=O)[C@H](C(C)C)NC(=O)[C@H](CC(C)C)NC(=O)[C@H](CC(N)=O)NC(=O)[C@H](CC(N)=O)NC(=O)[C@H](C)N(C)C(=O)[C@H](C(C)C)NC(=O)[C@H](Cc2ccc(-c3ccccc3)cc2)NC(=O)[C@H](CC(C)C)NC(=O)[C@H](Cc2c[nH]c3ccccc23)NC(=O)[C@H](CC(=O)O)NC(=O)[C@H](Cc2ccc(O)cc2)NC1=O [Compound 1815] ({CH2CO}-LYDWL[Bip]V[NMeA]NNLVSCG-NH2; thioether N-14) ?
0.31

Okay, and CSCC[C@H]1NC(=O)[C@H](C)N(C)C(=O)[C@H](CCCNC(=N)N)NC(=O)[C@H](Cc2ccc(-c3ccccc3)cc2)NC(=O)[C@H](C(C)C)NC(=O)[C@H](Cc2c[nH]c3ccccc23)NC(=O)[C@H](CC(=O)O)NC(=O)[C@H](Cc2ccc(O)cc2)NC(=O)[C@H](Cc2ccccc2)NC(=O)CSC[C@@H](C(=O)N[C@@H](C)C(N)=O)NC(=O)[C@H]([C@@H](C)O)NC(=O)[C@H](C(C)C)NC(=O)[C@H](CC(C)C)NC(=O)[C@H](CCCNC(=N)N)NC1=O [Compound 1062] ({CH2CO}-FYDWV[Bip]R[NMeA][dM]RLVTCA-NH2; thioether N-14) ?
0.15

Okay, and CC(C)C[C@@H]1NC(=O)[C@H](Cc2c[nH]c3ccccc23)NC(=O)[C@H](CC(=O)O)NC(=O)[C@H](Cc2ccc(O)cc2)NC(=O)[C@H](Cc2ccccc2)NC(=O)CSC[C@@H](C(=O)N[C@@H](C)C(N)=O)NC(=O)[C@H](CO)NC(=O)[C@H](C(C)C)NC(=O)[C@H](CC(C)C)NC(=O)[C@H](CC(N)=O)NC(=O)[C@@H](CCCCN)NC(=O)[C@H](C)N(C)C(=O)[C@H](C(C)C)NC(=O)[C@H](Cc2ccc(-c3ccccc3)cc2)NC1=O [Compound 1793] ({CH2CO}-FYDWL[Bip]V[NMeA][dK]NLVSCA-NH2; thioether N-14) ?
0.15

Okay, and CC(C)C[C@@H]1NC(=O)[C@H](CCCNC(=N)N)NC(=O)[C@@H](CC(C)C)NC(=O)[C@H](C)N(C)C(=O)[C@H](CCCNC(=N)N)NC(=O)[C@H](Cc2ccc(-c3ccccc3)cc2)NC(=O)[C@H](C(C)C)NC(=O)[C@H](Cc2c[nH]c3ccccc23)NC(=O)[C@H](CC(=O)O)NC(=O)[C@H](Cc2ccc(O)cc2)NC(=O)[C@H](CC(N)=O)NC(=O)CSC[C@@H](C(=O)N[C@@H](C)C(N)=O)NC(=O)[C@H]([C@@H](C)O)NC(=O)[C@H](C(C)C)NC1=O [Compound 1045] ({CH2CO}-NYDWV[Bip]R[NMeA][dL]RLVTCA-NH2; thioether N-14) ?
0.2
